# Tested on: 22AG human telomeric sequence G4
# method summary: TO G4-FID assay
# Type: binding
# experimental conditions: TO 2 eq, K+100 buffer
# Method: For the G4-FID assay, the oligonucleotides were dissolved in K^+100 buffer (10 mM lithium cacodylate buffer pH 7.3, 100 mM KCl, 1% DMSO). Oligonucleotide concentrations were determined on the basis of their absorbance at 260 nm. […] The percentage of TO displacement is calculated from the fluorescence intensity (F), using (1) % TO displacement=1−F/F0 where F0 is the fluorescence from the fluorescent probe bound to DNA without added ligand. […]
Note to self: values exactly at 60% are met. So % of TO displacement at 1 µM of ligand at or above 60% is met, below is not met.

>  <compound>
Cc1ccc(-c2cc(-c3ccccn3)nc(-c3ccccn3)c2)cc1.[Cl-].[Cl][Pt+] [Pt-ttpy]

>  <test target>
22AG human telomeric sequence G4

>  <group label>
met

$$$$

Data request: Confirm if % of TO displacement at 1 µM of ligand reported for the compound F[P-](F)(F)(F)(F)F.[Pt+][C]#Cc1ccccc1.c1ccc(-c2cccc(-c3ccccn3)n2)nc1 [Pt(PA)-tpy] is 60% or above.
Data returned: not met

Data request: Confirm if % of TO displacement at 1 µM of ligand reported for the compound C[n+]1cc(NC(=O)c2ccc3ccc4ccc(C(=O)Nc5cc6ccccc6[n+](C)c5)nc4c3n2)cc2ccccc21 [PhenDC3, reference compound] is 60% or above.
Data returned: met

Data request: Confirm if % of TO displacement at 1 µM of ligand reported for the compound [Cl-].[Cl][Pt+].c1ccc(-c2cc(-c3ccc(OCCN4CCCC4)cc3)nc(-c3ccccn3)n2)nc1 [Pt-cpym] is 60% or above.
Data returned: met

Data request: Confirm if % of TO displacement at 1 µM of ligand reported for the compound [Cl-].[Cl][Pt+].c1ccc(-c2cccc(-c3ccccn3)n2)nc1 [Pt-tpy] is 60% or above.
Data returned: not met

Data request: Confirm if % of TO displacement at 1 µM of ligand reported for the compound CN(C)CCCNCc1ccc(-c2cc(-c3ccccn3)nc(-c3ccccn3)c2)cc1.[Cl-].[Cl][Pt+] [Pt-ctpy] is 60% or above.
Data returned: met

###

# System: c-myc (myc22) (DNA, G4) TGAGGGTGGGTAGGGTGGGTAA
# method summary: G4-FID, thiazole orange displacement
# experimental conditions: 100 mM KCl; 10 mM lithium cacodylate pH 7.3, 1% DMSO; thiazole orange displaced; 1 µM compound, 0.25 µM DNA
Listed molecules paired with reported % TO displacement

>  <smiles string>
[Cl-].[Cl][Pt+].c1ccc(-c2cc(-c3ccc(OCCN4CCCC4)cc3)nc(-c3ccccn3)n2)nc1

>  <% TO displacement>
< 60%

$$$$
>  <smiles string>
Cc1ccc(-c2cc(-c3ccccn3)nc(-c3ccccn3)c2)cc1.[Cl-].[Cl][Pt+]

>  <% TO displacement>
> 80%

$$$$
>  <smiles string>
CN(C)CCCNCc1ccc(-c2cc(-c3ccccn3)nc(-c3ccccn3)c2)cc1.[Cl-].[Cl][Pt+]

>  <% TO displacement>
> 80%

$$$$

Next:
Sample [Cl-].[Pt+2].c1cc(-c2ccc3ccccc3n2)nc(-c2ccc3ccccc3n2)c1 ; % TO displacement observed: > 80%
